Tgt: Topoisomerase I (Bos taurus) (UniProt Q2HPH0)
Sequence (Q2HPH0 as listed by the source): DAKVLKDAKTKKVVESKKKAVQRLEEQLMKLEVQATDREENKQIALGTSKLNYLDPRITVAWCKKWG
Measurement Notes: Inhibition of calf thymus TOP1-mediated relaxation of supercoiled pBR322 DNA at 125 uM after 30 mins by agarose gel electrophoresis relative to control
Record form. Attribute: inhibition. Fill in for each entry.

Could you please provide reported inhibition for "CC[C@@]1(O)C(=O)OCc2c1cc1n(c2=O)Cc2cc3ccccc3nc2-1" ? Thanks! 58%

Identify inhibition associated with the compound "O=C1c2cccnc2C(=O)c2c1c(C(=O)OCCCN1CCCCC1)c1c(F)cccn21" 100%

Provide one value: measured inhibition of "O=C1c2cccnc2C(=O)c2c1c(C(=O)OCCN1CCCC1)c1c(F)cccn21" 100%

Using known records, supply inhibition for "O=C1c2cccnc2C(=O)c2c1c(C(=O)OCCN1CCCCC1)c1c(F)cccn21" 100%

###

Tgt: Topoisomerase I (Bos taurus) (UniProt Q2HPH0)
Measurement Notes: Inhibition of calf thymus TOP1-mediated relaxation of supercoiled pBR322 DNA at 25 uM after 30 mins by agarose gel electrophoresis relative to camptothecin
Parameter Measured: inhibition

Tell me measured inhibition for "CCOC(=O)c1c2c(n3ccc(NC(=O)CCN4CCOCC4)cc13)C(=O)c1ncccc1C2=O" please. 81 to 120%

Give recorded inhibition. "O=C1c2cnncc2C(=O)c2c1c(C(=O)OCCN1CCOCC1)c1ccccn21" 81 to 120%

Assign inhibition to the following record: "O=C1c2cccnc2C(=O)c2c1c(C(=O)OCCCN1CCCC1)c1c(Cl)cccn21" < 40%

Provide inhibition value for the following molecule: "CN1CCN(CCCOC(=O)c2c3c(n4cccc(F)c24)C(=O)c2ncccc2C3=O)CC1" 41 to 80%

Give the reported value of inhibition for this record: "O=C1c2cccnc2C(=O)c2c1c(C(=O)OCCN1CCCC1)c1c(Cl)cccn21" < 40%

Give inhibition for the following molecule: "CN(C)CCOC(=O)c1c2c(n3cccc(F)c13)C(=O)c1ncccc1C2=O" 41 to 80%

Please report the measured inhibition for "O=C1c2nccnc2C(=O)c2c1c(C(=O)OCCN1CCOCC1)c1ccccn21" 41 to 80%

Give the reported inhibition for this molecule. "CN1CCN(CCOC(=O)c2c3c(n4cccc(F)c24)C(=O)c2ncccc2C3=O)CC1" 41 to 80%

Give the reported value of inhibition for this record: "O=C1c2cccnc2C(=O)c2c1c(C(=O)OCCN1CCOCC1)c1c(Cl)cccn21" 41 to 80%

Return reported inhibition. Input molecule: "O=C1c2cccnc2C(=O)c2c1c(C(=O)OCCN1CCCC1)c1c(F)cccn21" > 121%

Return inhibition for the following molecule: "CCOC(=O)c1c2c(n3ccc(NC(=O)CCN4CCCC4)cc13)C(=O)c1ncccc1C2=O" 41 to 80%

Dear colleague, please send me the reported inhibition for "O=C1c2cccnc2C(=O)c2c1c(C(=O)OCCCN1CCCC1)c1c(F)cccn21" when you can. 41 to 80%

Please report inhibition for the following molecule: "O=C1c2cccnc2C(=O)c2c1c(C(=O)OCCCN1CCOCC1)c1c(Cl)cccn21" < 40%

Tell me measured inhibition for "CCOC(=O)c1c2c(n3ccc(NC(=O)CCN(C)C)cc13)C(=O)c1ncccc1C2=O" please. 41 to 80%

Report inhibition, nothing else, for this molecule: "CCOC(=O)c1c2c(n3ccc(NC(=O)CCN4CCCCC4)cc13)C(=O)c1ncccc1C2=O" 81 to 120%

Identify the reported inhibition for the following entry. "CN(C)CCCOC(=O)c1c2c(n3cccc(F)c13)C(=O)c1ncccc1C2=O" 81 to 120%

Answer with the recorded inhibition for the molecule listed here: "O=C1c2cccnc2C(=O)c2c1c(C(=O)OCCN1CCCCC1)c1c(Cl)cccn21" > 121%

Note inhibition for the molecule shown: "O=C1c2cccnc2C(=O)c2c1c(C(=O)OCCN1CCOCC1)c1c(F)cccn21" < 40%

Give the value of inhibition reported for the following: "O=C1c2cccnc2C(=O)c2c1c(C(=O)OCCCN1CCCCC1)c1c(F)cccn21" > 121%

Given "CCOC(=O)c1c2c(n3ccccc13)C(=O)c1ncccc1C2=O" , respond with its inhibition. 81 to 120%
